System: human Siglec-7 expressed on human cells (primary monocytes, dendritic cells, macrophages, NK cells, … (human, UniProt Q9Y286 19-467))
Sequence (Q9Y286 19-467): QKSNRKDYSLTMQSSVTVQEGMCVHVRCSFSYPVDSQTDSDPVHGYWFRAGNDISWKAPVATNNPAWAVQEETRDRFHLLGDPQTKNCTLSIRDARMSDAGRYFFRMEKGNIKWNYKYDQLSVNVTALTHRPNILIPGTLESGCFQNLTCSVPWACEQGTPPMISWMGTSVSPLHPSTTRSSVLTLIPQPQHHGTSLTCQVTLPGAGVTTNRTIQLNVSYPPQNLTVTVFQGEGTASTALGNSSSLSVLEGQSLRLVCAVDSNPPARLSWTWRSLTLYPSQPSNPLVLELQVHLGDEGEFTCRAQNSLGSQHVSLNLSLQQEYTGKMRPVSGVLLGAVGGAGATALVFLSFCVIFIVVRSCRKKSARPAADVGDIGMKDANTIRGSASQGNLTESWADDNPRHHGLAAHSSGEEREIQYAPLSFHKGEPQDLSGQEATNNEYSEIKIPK
Assay name: cell-based or functional assay
Experimental endpoint: Percent Siglec-7 Surface Expression, U937 cells (%)
Note: unit % is implicit; provide only the numeric part.

Consider the reported Percent Siglec-7 Surface Expression, U937 cells for these binders:
• anti-Siglec-7 antibody 4E3 (antibody, V domains shown, VL FR1 there holds a Z); also called S7-4E3; mAb S7-4E3) VH: EVQLVESGGALVKPGGSLKISCAVSGFIFSNYDMSWVRQNPEKRLEWVATISSGGGYTYYPDSVKGRFTISRDNAKNALYLQMSSLRSEDTALYYCTRHGYGNYDWYFDVWGAGATVTVSS VL: QIVLTQSPAILSASPGEKVTMTCSANSSFTYMYWYQQKPGSSPRLLIFDTSNLASGVPIRFSGSGSGTSYSLTISRMEAEDTATYYCQQWSSSPLTFGAGTKLELK = 30.8
• anti-Siglec-7 antibody 4D7 (antibody, V domains shown, Variable domains assembled from FR and CDR entries) VH: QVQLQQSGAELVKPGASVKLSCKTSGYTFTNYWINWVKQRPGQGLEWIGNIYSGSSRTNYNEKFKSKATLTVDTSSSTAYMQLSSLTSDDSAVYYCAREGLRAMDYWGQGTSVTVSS VL: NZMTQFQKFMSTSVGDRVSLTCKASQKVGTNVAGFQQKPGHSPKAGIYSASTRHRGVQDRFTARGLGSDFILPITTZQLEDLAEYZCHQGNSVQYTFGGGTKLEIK = 84.7
• anti-Siglec-7 antibody 10B5 (antibody, V domains shown, that light chain holds several Z and differs in its CDRs from S7-10B5.1 / 10B5L1; also called S7-10B5; mAb S7-10B5) VH: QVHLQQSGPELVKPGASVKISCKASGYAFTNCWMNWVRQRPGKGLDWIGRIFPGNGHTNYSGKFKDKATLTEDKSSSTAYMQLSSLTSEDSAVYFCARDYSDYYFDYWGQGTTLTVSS VL: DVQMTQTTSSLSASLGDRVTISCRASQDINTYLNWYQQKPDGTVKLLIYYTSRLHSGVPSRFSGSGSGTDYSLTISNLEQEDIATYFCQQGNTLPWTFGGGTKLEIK = 36.5

Given anti-Siglec-7 antibody 1A12 (antibody, V domains shown, also called 1Al2) VH: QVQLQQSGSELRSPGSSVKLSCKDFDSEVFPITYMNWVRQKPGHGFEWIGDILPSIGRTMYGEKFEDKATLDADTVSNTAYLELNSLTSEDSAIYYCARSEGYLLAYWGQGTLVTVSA VL: DVZMTQTPLSLPVSLGDQASISCRSSQSLVHSTGNTYLHWYLQKPGQSPKLLIYKVSNRFSGVPDRFSGSGAGTDFTLKISRVEAEDLGVYFCSQNTHVPYTFGGGTKLEIK , state its recorded Percent Siglec-7 Surface Expression, U937 cells. 87.3

Data request, read-out Percent Siglec-7 Surface Expression, U937 cells, for anti-Siglec-7 antibody 3E11 (antibody, V domains shown, Variable domains assembled from FR and CDR entries) VH: QVQLQQSGAELARPGASVKLSCKASGYIFTDYGITWVKQRTGQGLEWIGEISPRSGETYFNENYRVKATLTADKSSSTAYMQLFSLTSEDSAVYFCAREGNPFTYWGHGTLVTVSA VL: DVZMTQTPLSLPVSLGDQASISCRSSQSLVHSTGNTYLHWYLQKPGQSPKLLIYKVSNRFCGVPDRFSGSGAGTDFTLKISRVEAEDLGVYFCSQNTHVPYTFGGGTKLEIK 82.4
